// provenance: patent US20170121322A1

- System tested: BRD4 bromo domain 1 [BRD4(1)] (Homo sapiens, UniProt O60885)
- Construct: N-terminally His6-tagged BRD4(1) (amino acids 67-152)
- Run description: BRD4(1)/acetylated peptide H4 TR-FRET binding assay
- Condition: His6-BRD4(1) (aa 67-152) vs acetylated histone H4 peptide
Assay metric: IC50 (nM)
The reply should be a number in nM, with the unit left off.

These solved cases illustrate the format of a correct answer.
* C=CCS(=O)(=O)c1ccc(OC)c(Nc2ccc3c(n2)N(C2CCN(C)CC2)[C@H](C)C(=O)N3C)c1 [Example 23] | 27
* COc1ccc(S(=O)(=O)C2CCC2)cc1Nc1ccc2c(n1)N(C1CCOCC1)[C@H](C)C(=O)N2C [Example 35] | 32
* COc1ccc(S(=O)(=O)C(F)(F)F)cc1Nc1ccc2c(n1)N(C1CCOCC1)[C@H](C)C(=O)N2C [Example 39] | 46

IN: Which measured IC50 value corresponds to C[C@@H]1C(=O)N(C)c2ccc(Nc3cccc(S(C)(=N)=O)c3)nc2N1C1CCOCC1 (stereo partly shown) [Example 44] ?
OUT: 3640

IN: Which measured IC50 value corresponds to COc1ccc(S(=O)(=O)C(C)C)cc1Nc1ccc2c(n1)N(C(C)C)[C@H](C)C(=O)N2C [Example 16] ?
OUT: 88

IN: Which measured IC50 value corresponds to C[C@@H]1C(=O)N(C)c2ccc(Nc3cccc(-c4ccc(C#N)cc4)c3)nc2N1C1CCOCC1 [Example 18] ?
OUT: 1100

IN: Which measured IC50 value corresponds to COc1ccc(S(=O)(=O)C(C)C)cc1Nc1ccc2c(n1)N(C1CCN(CCC(F)(F)F)CC1)[C@H](C)C(=O)N2C [Example 31] ?
OUT: 23
